molecules and their reported pKd
Target: Serine/threonine-protein kinase toxin HipA (Escherichia coli (strain K12), UniProt P23874, D309Q)
Sequence (P23874 whole entry D309Q): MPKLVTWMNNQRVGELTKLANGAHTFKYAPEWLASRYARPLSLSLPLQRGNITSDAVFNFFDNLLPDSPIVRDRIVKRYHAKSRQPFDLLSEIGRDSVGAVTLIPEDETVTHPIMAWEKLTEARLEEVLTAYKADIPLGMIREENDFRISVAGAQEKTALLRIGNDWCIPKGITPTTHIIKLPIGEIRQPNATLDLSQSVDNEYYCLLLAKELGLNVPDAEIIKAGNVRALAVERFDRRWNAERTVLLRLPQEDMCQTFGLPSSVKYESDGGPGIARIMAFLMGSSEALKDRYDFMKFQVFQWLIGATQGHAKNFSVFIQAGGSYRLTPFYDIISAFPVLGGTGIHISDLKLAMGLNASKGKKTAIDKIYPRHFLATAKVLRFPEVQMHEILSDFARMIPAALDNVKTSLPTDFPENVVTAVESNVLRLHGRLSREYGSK
Assay: Binding affinity to Escherichia coli HipA D309Q mutant expressed in Escherichia coli BL21 (DE3) by surface plasmon resonance assay
Conceptually, pKd converts a concentration in mol/L into minus its log10.

Solved cases below.
>>> endpoint_value("CCN1CCN(CCNC(=O)c2cccc(Nc3cc(-c4ccccc4)ncn3)c2)CC1")
4.27
>>> endpoint_value("CCc1ccc(C2C(C(=O)c3ccc(OC)cc3)=C(O)C(=O)N2CCc2c[nH]c3ccccc23)cc1 (centres undefined)")
6.57
>>> endpoint_value("CCOC(=O)c1ccc(NC(=O)CSc2nnc(CSc3nc(C)cc(C)n3)o2)cc1")
4.46

Please find the next molecule below.
QUERY: # lookup: pKd of "COc1cc(NC(=O)c2cc3nc(-c4ccc(F)cc4)cc(C)n3n2)cc([N+](=O)[O-])c1"
RESULT: 4.37

These measurements were taken from ChEMBL document CHEMBL3808302.
